Data provenance: patent US20250161472A1

Measured Affinity ELISA, pH 7.4, listed per entry for reference.
Target: T1, human ROR2 (receptor tyrosine kinase-like orphan receptor 2) (human, UniProt Q01974 34-403, limits assumed)
T1 construct: Antigen of the ELISA, SPR and pH titration assays; also called hROR2
T1 sequence (Q01974 34-403 limits assumed): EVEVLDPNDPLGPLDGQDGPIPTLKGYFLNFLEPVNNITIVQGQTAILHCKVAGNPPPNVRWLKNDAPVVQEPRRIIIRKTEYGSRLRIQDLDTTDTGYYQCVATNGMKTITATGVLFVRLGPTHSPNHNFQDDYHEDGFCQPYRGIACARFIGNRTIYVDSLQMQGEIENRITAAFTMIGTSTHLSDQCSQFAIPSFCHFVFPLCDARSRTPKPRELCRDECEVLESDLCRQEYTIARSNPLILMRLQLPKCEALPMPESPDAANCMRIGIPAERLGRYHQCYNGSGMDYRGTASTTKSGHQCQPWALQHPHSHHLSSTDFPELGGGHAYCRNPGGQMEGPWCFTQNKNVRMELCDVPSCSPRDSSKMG
Assay: affinity ELISA on human ROR2, pH 7.4
Set-up: unit not given here
observation_type: Affinity ELISA, pH 7.4

binder	reading
LC-S092D (antibody, V domains shown, CPE single point mutant of parent VL 48.6-LC-WT) VH: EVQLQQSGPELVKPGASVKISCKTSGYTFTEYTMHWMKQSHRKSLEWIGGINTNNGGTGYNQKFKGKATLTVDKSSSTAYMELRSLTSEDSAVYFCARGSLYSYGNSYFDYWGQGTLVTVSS VL: QIVLTQSPAIMSASPGEKVTITCSATSSVSYMHWFQQKPGTSPKLWIYGTSNLASGVPARFSGSGSGTSYSLTISRMEAEDAATYYCQQRSDYPFTFGQGTKVEIK	1.12
LC-Q089E (antibody, V domains shown, CPE single point mutant of parent VL 48.6-LC-WT) VH: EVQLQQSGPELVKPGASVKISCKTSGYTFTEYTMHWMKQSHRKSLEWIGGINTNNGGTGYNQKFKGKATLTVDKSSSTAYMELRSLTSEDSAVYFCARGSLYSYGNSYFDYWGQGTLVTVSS VL: QIVLTQSPAIMSASPGEKVTITCSATSSVSYMHWFQQKPGTSPKLWIYGTSNLASGVPARFSGSGSGTSYSLTISRMEAEDAATYYCQERSSYPFTFGQGTKVEIK	0.251
LC-Y031D (antibody, V domains shown, CPE single point mutant of parent VL 48.6-LC-WT) VH: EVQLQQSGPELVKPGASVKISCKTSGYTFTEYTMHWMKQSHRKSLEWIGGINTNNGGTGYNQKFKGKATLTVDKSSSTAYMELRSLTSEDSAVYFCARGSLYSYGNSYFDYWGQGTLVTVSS VL: QIVLTQSPAIMSASPGEKVTITCSATSSVSDMHWFQQKPGTSPKLWIYGTSNLASGVPARFSGSGSGTSYSLTISRMEAEDAATYYCQQRSSYPFTFGQGTKVEIK	0.405
LC-H033G (antibody, V domains shown, CPE single point mutant of parent VL 48.6-LC-WT) VH: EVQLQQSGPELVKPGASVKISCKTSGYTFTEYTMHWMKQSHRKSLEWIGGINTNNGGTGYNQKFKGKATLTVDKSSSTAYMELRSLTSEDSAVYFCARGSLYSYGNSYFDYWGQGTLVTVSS VL: QIVLTQSPAIMSASPGEKVTITCSATSSVSYMGWFQQKPGTSPKLWIYGTSNLASGVPARFSGSGSGTSYSLTISRMEAEDAATYYCQQRSSYPFTFGQGTKVEIK	0.536
